# maps each entry to its kon
Target: T1, TIGIT (UniProt Q495A1 22-141, limits assumed)
T1 construct: also called T cell immunoreceptor with Ig and ITIM domains; hTIGIT
T1 sequence (looked up): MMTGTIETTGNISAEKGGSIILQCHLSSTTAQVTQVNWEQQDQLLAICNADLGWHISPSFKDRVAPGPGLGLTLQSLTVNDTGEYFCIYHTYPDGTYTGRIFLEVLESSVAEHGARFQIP
Test: SPR (Carterra)
Value expressed in M⁻¹ s⁻¹; do not type the unit.

[[record]]
binder = "TIGIT-471-001 (antibody, V domains shown, Variable domains only) VH: EVQLLESGGGLVQPGGSLRLSCAASGFTFSNYGVSWVRQAPGKGLEWVGYINPSRGYTYYADSVKGRFTISRDNSKNTLYLQMNSLRAEDTAVYYCARSYGGGFDYWGQGTLVTVSS VL: DIQMTQSPSSLSASVGDRVTITCRASQTIERRLNWYQQKPGKAPKLLIYDASSLHTGVPSRFSGSGSGTDFTLTISSLQPEDFATYYCQQSYIIPPTFGQGTKVEIK"
reported_value = 359000

[[record]]
binder = "TIGIT-471-019 (antibody, V domains shown, Variable domains only) VH: EVQLLESGGGLVQPGGSLRLSCAASGFTFSNYGVSWVRQAHGKGLEWVVYINPSRGYTYYADSVKGRFSISRDNSKNTLYLQMNSLRAEDTAVYYCARSYGGGFDYWGQGTLVTVSS VL: DIQMTQSPSSLSASVGDRVTITCRASQTIERRLNWYQQKPGKAPKLLIYDASSLHTGVPSRFSGSGSGTDFTLTISSLQPEDFATYYCQQSYIIPPTFGQGTKVEIK"
reported_value = 344000


Attention now turns to another entry.
query: Tell us which kon value is on record for TIGIT-471-035 (antibody, V domains shown, Variable domains only) VH: EVQLLESGGGLVQPGGSLRLSCAASGFTFNAYPMTWVRQAPGKGLEWVSAITGSGGSTYYADSVKGRFTISRDNSKNTLYLQMNSLRAEDTAVYYCARVWRNHLDYWGQGTLVTVSS VL: DIQMTQSPSSLSASVGDRVTITCSGDKLGHTYTSWYQQKPGKAPKLLIYRASTLASGVPSRFSGSGSGTDFTLTISSLQPEDFATYYCQQGYTLPWTFGQGTKVEIK
result: 123000
